procedure-summary: NCI Yeast Anticancer Drug Screen. Data for the bub3 strain (AID 167)
run-conditions: S. cerevisiae bub3 mutant strain, hits give high values; at 50.0 µM unless noted
This is part of a sample that, as a whole, favours compounds with a hit. Of some 79,000 tested, about 15% had one in any assay.
List of growth inhibition values.
recorded-metric: growth inhibition (%)

INSERT INTO assay_data (molecule, assay_value) VALUES
  ('CC(=O)NC(C)c1ccccc1 (centres undefined)', -1.55),
  ('CCC(C)(C)NC(N)=O', 8.55),
  ('O=C1OCC(c2ccccc2)=C1c1ccccc1', 6.35),
  ('O=C(O)CC(O)(CC(=O)O)C(=O)O', -0.25),
  ('CC(C)(C)CC(=O)NC1CCCCC1', 3.4),
  ('COc1cc(Br)c(CC(NC=O)c2ccc(OC)c(OC)c2OC)cc1OC (centres undefined)', -1.5),
  ('O=C(Nc1ccc(-c2cn3ccccc3n2)cc1)c1ccccc1O', 10.2),
  ('C/C(=C\CNc1nc(Cl)nc2nc[nH]c12)CO', -0.4),
  ('CC(=O)OC1CCC(C(C)(C)C)CC1 (centres undefined)', -28.2),
  ('OCC1OCOC(CO)(CO)C1O (centres undefined)', 21.7),
  ('O=CC(=O)O', 26.6),
  ('O=C(CC(=O)Nc1ccccc1Cl)NNC(c1cc(N=Nc2ccc(Br)cc2)ccc1O)P(O)O (centres undefined)', -8.25),
  ('O=C(Cl)C(=O)c1c[nH]c2ccccc12', -33.6),
  ('CC1COC(C)(C)P(=O)(c2ccccc2)C1 (centres undefined)', -7.15);

====

procedure-summary: NCI Yeast Anticancer Drug Screen. Data for the sgs1 mgt1 strain (AID 161);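 further: 0% = growth of cultures given vehicle only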
run-conditions: S. cerevisiae sgs1 mgt1 strain, hits give high values; at 50.0 µM unless noted
The panel holds about 79,000 compounds, 15% with a hit somewhere; the sample as a whole holds those more often. Where a SMILES comes first, the peptide text is derived from it. The star is where a group is joined. Cbz = O=C(OCc1ccccc1)*; Boc = CC(C)(C)OC(=O)*; tBu = CC(C)(C)*
List of growth inhibition values.
recorded-metric: growth inhibition (%)

INSERT INTO measurements (compound, unit_descriptor, assay_value) VALUES
  ('C=CCC(Cc1ccccc1)C(N)=O (stereo not given)', '%', -14.5),
  ('Cc1ccc(N[P+](c2ccccc2)(c2ccccc2)c2ccccc2)cc1.[Cl][Fe]([Cl])([Cl])[Cl]', '%', 22.9),
  ('CN(C)c1ccc(Cc2ccc(N(C)C)cc2N)cc1', '%', 2.75),
  ('C=C1CC[C@@H](C)[C@](C)(CCc2ccoc2)C/C=C\C=C/1C(=O)O', '%', 18.6),
  ('C/C(CC(=O)Nc1cc(C)ccc1C)=N\NC(=O)c1ccncc1', '%', 10.7),
  ('CC(=O)Oc1ccc(N2CC=C(c3ccccc3)CC2)cc1', '%', -9.75),
  ('C=C(C)[C@H]1C=C[C@@H](OC(=O)c2cccnc2)[C@@]23CO[C@@](C)([C@H](OC(=O)c4cccnc4)[C@@]4(OC(C)=O)C[C@H](C)[C@H](OCCC)[C@@H]4[C@H]2OC(C)=O)[C@H]13', '%', 27.4),
  ('O=[N+]([O-])c1ccccc1N1CCCCC1', '%', 14.9),
  ('CC(OC(C)(C)C)C(NC(=O)C(CCCCNC(=O)OC(C)(C)C)NC(=O)C(Cc1c[nH]c2ccccc12)NC(=O)C(Cc1ccccc1)NC(=O)OCc1ccccc1)C(=O)NC(Cc1ccccc1)C(=O)O (stereo not given) (Cbz-FWK(Boc)T(tBu)F-OH; configuration not given here)', '%', -24.2),
  ('CN1C(=O)N(c2cc(Cl)cc(Cl)c2)C(=N)C1=S', '%', 17.6),
  ('Clc1ccc(-c2c(C3=NCCCN3)nnn2-c2ccc(Cl)cc2)cc1', '%', -10.9),
  ('C=CCCn1nc(-c2ccccc2)oc1=O', '%', -19.2),
  ('CSc1nc(C)cc(Nc2ccc(O)c(CN3CCCCC3)c2)n1', '%', -27.3),
  ('O=[N+]([O-])c1ncccc1O', '%', -4.5),
  ('Nc1c(Cl)ncnc1NCc1ccco1', '%', -13.8),
  ('N#C/C(=C\c1ccccc1)c1cccc(F)c1', '%', 18.2),
  ('CC1(O)CCCC1(C)O (stereo not given)', '%', -19.1),
  ('O=C1NC2OCC(O)C(O)C2O1 (stereo not given)', '%', -4.15),
  ('C=C1C(=O)O[C@@H]2C[C@@]3(C)[C@H](O)CCC(=C)[C@@H]3C[C@H]12', '%', 3.95),
  ('Cc1ccc(Cl)c(NC(=O)Nc2ccccc2Cl)c1', '%', -7.2),
  ('CCCCCCC(CCN(C)C)(C(C)=O)c1ccccc1 (stereo not given)', '%', 1.05),
  ('NC1=C(O)C(=O)C(c2ccc3c(c2)OCO3)O1 (stereo not given)', '%', -19.9),
  ('O=[N+]([O-])c1ccc2c(c1)S(=O)c1ccccc1-2 (stereo not given)', '%', -12.4),
  ('COC(=O)NC(=O)c1cn(CCCOC(=O)CCCCCCCCC(=O)OCCCn2cc(C(=O)NC(=O)OC)c(=O)[nH]c2=O)c(=O)[nH]c1=O', '%', -7.45),
  ('COC1CCC(=O)N1CN(C(C)=O)c1ccc(C)cc1 (stereo not given)', '%', -25.2),
  ('O=C(OC1CCCCCCC1OC(=O)c1ccc([N+](=O)[O-])cc1)c1ccc([N+](=O)[O-])cc1 (stereo not given)', '%', 6.4),
  ('Cc1ccc(S(=O)(=O)NN=C2C3C=CC2CC3)cc1', '%', 2.55),
  ('O=C(O)COc1ccc(C2CCc3ccccc32)cc1 (stereo not given)', '%', -3.85),
  ('CCN(CC)c1ccc2cc(C(=O)Nc3ccccc3)c(=N)oc2c1', '%', 1.8),
  ('CSc1nc(SC)c2cnn(CC3CO3)c2n1 (stereo not given)', '%', 60.8),
  ('CN(/C(=C/C(=O)c1ccccc1)C(=O)c1ccccc1)/C(=C/C(=O)c1ccccc1)C(=O)c1ccccc1', '%', -0.95),
  ('c1ccc(-n2ncnn2)cc1', '%', -8.55),
  ('O=C(C1=CCCCC1)c1ccc(-c2ccccc2)cc1', '%', 2.25),
  ('CN(C)c1nc(NC(=O)NC(=O)c2c(F)cccc2F)nc(N(C)C)n1', '%', 1.55),
  ('Cc1ccc(N=C2S/C(=C3/CCC=C3N3CCOCC3)N(c3ccc(Cl)cc3)C2=Nc2ccc(C)cc2)cc1', '%', -14.9),
  ('CN(C)CCC(C#N)c1ccccc1 (stereo not given)', '%', -2.7),
  ('Nc1ncnc(Nc2ccc(Cl)cc2Cl)n1', '%', 5.75),
  ('Clc1cccc(Cl)c1C1SCc2nc3cc4ccccc4cc3n21 (stereo not given)', '%', 24.9),
  ('O=P(O)(O)OC1OC(CO)C(O)C(O)C1O (stereo not given)', '%', -3.9),
  ('OC(COc1cccc(C(F)(F)F)c1)CN1CCN(c2ccc(F)cc2)CC1 (stereo not given)', '%', 96.3),
  ('CC(=O)c1cccc(N=NN(C)C)c1', '%', 58),
  ('C#CCOC(=O)c1ccccc1', '%', 0.6),
  ('COc1ccc(N2C(=O)C/C(=C/c3ccc(C(C)C)cc3)C2=O)cc1', '%', 11.9),
  ('COc1cc2c(cc1OC)C1C(C)c3ccc(OC)c(OC)c3CN1CC2 (stereo not given)', '%', -3.25),
  ('CCCCCOC(=O)C#CC(=O)OCCCCC', '%', 99.7);
